# assay-remarks: Hydroxyapatite (HAP) affinity, chromatographic retention on HAP column
# Type: physicochemical
# assay-context: phosphate buffer gradient 1 mM to 1000 mM, pH 6.8, longer retention = higher mineral affinity
property-label: HAP Affinity Retention time (min)
Report the figure in min without appending any unit label.

Look over these answered cases.
compound="O=P(O)(O)C(O)(Cc1cnc2ccccn12)P(=O)(O)O [Minodronate, reference compound]" property_label="HAP Affinity Retention time" result_unit=min result_value=10.33
compound="CCc1nc2ccccn2c1CC(P(=O)(O)O)P(=O)(O)O [compound 75]" property_label="HAP Affinity Retention time" result_unit=min result_value=4.83
compound="O=P(O)(O)C(Cc1cnc2ccc(F)cn12)P(=O)(O)O [compound 34]" property_label="HAP Affinity Retention time" result_unit=min result_value=6.3
compound="O=P(O)(O)C(F)(Cc1cnc2ccccn12)P(=O)(O)O [compound 23]" property_label="HAP Affinity Retention time" result_unit=min result_value=6.17
compound="O=P(O)(O)C(O)(Cn1ccnc1)P(=O)(O)O [Zoledronate, reference compound]" property_label="HAP Affinity Retention time" result_unit=min result_value=12.53
compound="O=P(O)(O)C(O)(Cc1cccnc1)P(=O)(O)O [Risedronate, reference compound]" property_label="HAP Affinity Retention time" result_unit=min result_value=9.97
compound="Cc1ccn2c(CC(F)(P(=O)(O)O)P(=O)(O)O)cnc2c1 [compound 11]" property_label="HAP Affinity Retention time" result_unit=min result_value=6.2
compound="Cc1ccn2c(CC(P(=O)(O)O)P(=O)(O)O)cnc2c1 [compound 15]" property_label="HAP Affinity Retention time" result_unit=min result_value=6.6
compound="O=P(O)(O)C(Cc1cnc2c(O)cccn12)P(=O)(O)O [compound 40]" property_label="HAP Affinity Retention time" result_unit=min result_value=5.3
compound="Cc1ccc2ncc(CC(P(=O)(O)O)P(=O)(O)O)n2c1 [compound 81]" property_label="HAP Affinity Retention time" result_unit=min result_value=6.6

Here's the next entry for you.
Note down HAP Affinity Retention time recorded for O=P(O)(O)C(Cc1cnc2ccccn12)P(=O)(O)O [compound 80] 6.6

This collection of values is drawn from patent US8618079B2.
